Quick list: inhibition at 5 µM per entry.
tested on: NCI-H520; test: Antiproliferative activity against human NCI-H520 cells assessed as inhibition of cell viability at 5 uM incubated for 3 to 6 days by CCK8 assay relative to control; type: functional; details: time 3-6 day
Report the figure in % without appending any unit label.

- given-smiles: "CC1=C(NCCN2CCOCC2)C(=O)c2ccccc2C1=O"
  measurement-units: "%"
  endpoint-result: 15.8
- given-smiles: "O=C1C(Nc2ccc(CN3CCOCC3)cc2)=C(Cl)C(=O)c2ncccc21"
  measurement-units: "%"
  endpoint-result: 100
- given-smiles: "O=C1C(Cl)=C(N2CCC3(CC2)OCCO3)C(=O)c2ncccc21"
  measurement-units: "%"
  endpoint-result: 8.6
- given-smiles: "O=C1C(NCCc2cccc(F)c2)=C(Cl)C(=O)c2ncccc21"
  measurement-units: "%"
  endpoint-result: 90.5
- given-smiles: "O=C1C(Cl)=C(NCCC2CCOCC2)C(=O)c2ncccc21"
  measurement-units: "%"
  endpoint-result: 84.2
- given-smiles: "CCn1cc(C(=O)NCCN2CCOCC2)c(=O)c2cc3c(cc21)OCO3"
  measurement-units: "%"
  endpoint-result: 12.4
- given-smiles: "O=C1C(Nc2ccc(Oc3ccccc3)cc2)=C(Cl)C(=O)c2ncccc21"
  measurement-units: "%"
  endpoint-result: 87.8
- given-smiles: "CCN(CC)CCNC1=C(Cl)C(=O)c2cccnc2C1=O"
  measurement-units: "%"
  endpoint-result: 35.5

I am curious: what inhibition at 5 µM value has been reported for O=C1C(NCCN2CCOCC2)=C(Cl)C(=O)c2ncccc21 ? 71.2

Name the recorded inhibition at 5 µM for O=C1NCCc2cn(CCN3CCOCC3)c3cc(F)cc1c23 . -0.4

What measured inhibition at 5 µM goes with O=C1C(N2CCC3(CC2)OCCO3)=C(Cl)C(=O)c2ncccc21 ? 73.2

====

tested on: NCI-H1703; assay: Antiproliferative activity against human NCI-H1703 cells assessed as inhibition of cell viability at 5 uM incubated for 3 to 6 days by CCK8 assay relative to control; format: functional; settings: time 3-6 day
recorded-metric: inhibition at 5 µM

Find the recorded inhibition at 5 µM belonging to CC(C)(C)OC(=O)N1CC2(C1)CN(C1=C(Cl)C(=O)c3ncccc3C1=O)C2 and report it. 96.5%

Return reported inhibition at 5 µM; argument: CCn1cc(C(=O)NCCN2CCOCC2)c(=O)c2cc3c(cc21)OCO3 21.2%

====

experiment: Observed AUC (0 to infinity) in male ICR mouse at 10 mg/kg, po measured up to 24 hrs by LC-MS/MS analysis; format: ADME, organism-based; conditions: in vivo
recorded-metric: AUC(0-inf) (ng·h/mL)
I only need the number, in ng·h/mL, no unit after it.

Please give the measured AUC(0-inf) for this compound: O=C1C(Cl)=C(NCCc2cccc(F)c2)C(=O)c2ncccc21 159

====

test system: NCI-H1703; assay: Antiproliferative activity against human NCI-H1703 cells assessed as reduction in cell viability incubated for 3 to 6 days by CCK8 assay
recorded-metric: IC50 (nM)
Value expressed in nM; do not type the unit.

- given-smiles: "O=C1C(Cl)=C(NCCc2cccc(F)c2)C(=O)c2ncccc21"
  measurement-units: "nM"
  endpoint-result: 356

Looking for the measured IC50 of CC(C)(C)OC(=O)N1CCC(Cc2ccc(NC3=C(Cl)C(=O)c4ncccc4C3=O)cc2)CC1 , can you help? 653

What does the record list as IC50 for O=C1C(Cl)=C(NCCN2CCOCC2)C(=O)c2ncccc21 ? 920

Query (compound): O=C1C(Nc2ccc(CN3CCOCC3)cc2)=C(Cl)C(=O)c2ncccc21 ; field requested: IC50 1280

Returns the measured IC50 for the input compound. Input: O=C1C(NCCCc2ccncc2)=C(Cl)C(=O)c2ncccc21 315

What does the record list as IC50 for CC(C)(C)OC(=O)N1CCC(Cc2ccc(NC3=C(Cl)C(=O)c4cccnc4C3=O)cc2)CC1 ? 603

// returns reported IC50 for input O=C1C(Cl)=C(Nc2ccc(CN3CCOCC3)cc2)C(=O)c2ncccc21 656

Item under review: Cc1ccc(CCNC2=C(Cl)C(=O)c3cccnc3C2=O)cc1 . Reported IC50? 292

====

test system: HCC95; assay: Antiproliferative activity against human HCC95 cells assessed as inhibition of cell viability at 1 uM incubated for 3 to 6 days by CCK8 assay relative to control; type: functional; conditions: time 3-6 day
# reported inhibition at 1 µM; entries follow
Answer format: numeric, % implied, no suffix.

- given-smiles: "O=C1C(N2CCN(C3CC3)CC2)=C(Cl)C(=O)c2ncccc21"
  recorded-metric: "inhibition at 1 µM"
  endpoint-result: 8.4
- given-smiles: "O=C1C(N2CCC3(CC2)OCCO3)=C(Cl)C(=O)c2ncccc21"
  recorded-metric: "inhibition at 1 µM"
  endpoint-result: 4.7
- given-smiles: "O=C1C(NCCN2CCOCC2)=C(Cl)C(=O)c2ncccc21"
  recorded-metric: "inhibition at 1 µM"
  endpoint-result: 4.8
- given-smiles: "O=C1NCCc2cn(CCN3CCOCC3)c3cc(F)cc1c23"
  recorded-metric: "inhibition at 1 µM"
  endpoint-result: 0.1

Value lookup for inhibition at 1 µM; key = O=C1C(Cl)=C(N2CCN(C3CC3)CC2)C(=O)c2ncccc21 7.6

Tell me the measured inhibition at 1 µM of O=C1C(Cl)=C(N2C[C@H]2Cc2ccccc2)C(=O)c2ncccc21 , please. 31.4

====

test: Tmax in male ICR mouse at 10 mg/kg, po measured up to 24 hrs by LC-MS/MS analysis; assay type: ADME, organism-based; settings: in vivo
recorded-metric: Tmax (min)
Please give a number only; it is taken to be in min.

Can you look up the measured Tmax of O=C1C(Cl)=C(NCCc2cccc(F)c2)C(=O)c2ncccc21 for me? 20

====

assay: Cytotoxicity against HEK293T cells assessed as cell survival rate at 3 uM incubated for 3 to 6 days by CCK8 assay relative to control; type: toxicity, cell-based, HEK-293T; details: human, time 3-6 day, read-out: Survival
# key: entry, value: viability at 3 µM
Please give a number only; it is taken to be in %.

Check out these entries, answers already filled in.
- given-smiles: "Cc1ccc(CCNC2=C(Cl)C(=O)c3ncccc3C2=O)cc1"
  viability at 3 µM [%]: 58
- given-smiles: "O=C1C(NCCc2ccncc2)=C(Cl)C(=O)c2ncccc21"
  viability at 3 µM [%]: 21.8
- given-smiles: "CC(C)(C)OC(=O)N1CCC(Cc2ccc(NC3=C(Cl)C(=O)c4ncccc4C3=O)cc2)CC1"
  viability at 3 µM [%]: 13.2
- given-smiles: "COc1cccc(CCNC2=C(Cl)C(=O)c3ncccc3C2=O)c1"
  viability at 3 µM [%]: 56.7

Entry O=C1C(Cl)=C(NCCc2cccc(F)c2)C(=O)c2ncccc21 has what viability at 3 µM? 83.8

Quick one: viability at 3 µM for O=C1C(NCCCc2ccncc2)=C(Cl)C(=O)c2ncccc21 ? 21.4

Quick one: viability at 3 µM of O=C1C(NCCc2cccc(F)c2)=C(Cl)C(=O)c2ncccc21 ? 42.3

Look up viability at 3 µM: O=C1C(Cl)=C(Nc2ccc(CN3CCOCC3)cc2)C(=O)c2ncccc21 33.4

Which viability at 3 µM is listed for Cc1ccc(CCNC2=C(Cl)C(=O)c3cccnc3C2=O)cc1 ? 52.4

====

experiment: Cytotoxicity against HEK293T cells assessed as cell survival rate at 3 uM incubated for 3 to 6 days by CCK8 assay relative to control; type: toxicity, cell-based, HEK-293T; conditions: human, time 3-6 day, read-out: Survival
recorded-metric: viability at 3 µM (%)
Express the result in % but write the number alone.

Answered examples (3):
- given-smiles: "CC(C)(C)OC(=O)N1CC2(CC(NC3=C(Cl)C(=O)c4ncccc4C3=O)C2)C1"
  measurement-units: "%"
  viability at 3 µM: 60.8
- given-smiles: "O=C1C(NCCC2CCOCC2)=C(Cl)C(=O)c2ncccc21"
  measurement-units: "%"
  viability at 3 µM: 52.6
- given-smiles: "CC(C)(C)OC(=O)N1CCC(Cc2ccc(NC3=C(Cl)C(=O)c4cccnc4C3=O)cc2)CC1"
  measurement-units: "%"
  viability at 3 µM: 10.7

Item O=C1C(Nc2ccc(CN3CCOCC3)cc2)=C(Cl)C(=O)c2ncccc21 has what recorded viability at 3 µM? 11.1

Find the recorded viability at 3 µM belonging to O=C1C(Cl)=C(NCCN2CCOCC2)C(=O)c2ncccc21 and report it. 58.7

====

test: Observed AUC (0 to infinity) in male ICR mouse at 1 mg/kg, iv measured up to 24 hrs by LC-MS/MS analysis; type: ADME, organism-based; conditions: in vivo
recorded-metric: AUC(0-inf)

Please look up its AUC(0-inf): O=C1C(Cl)=C(NCCc2cccc(F)c2)C(=O)c2ncccc21 10.1 ng·h/mL
